Can you tell me melting point for the items I'm about to list?

Looking for the measured melting point of Nc1ccccc1C(=O)c1ccncc1 , can you help?
153 to 161 °C

Requested read-out: melting point. Entry: c1ccc2c(c1)NCCCO2
50 to 51 °C

Need melting point of COc1cccc2c1C13CCN(C)C(C2)C1(O)CCC(=O)C3 (stereo not drawn) , thanks.
191 to 193 °C

Bench note: what melting point did CSc1ccc(-c2csc(NC(C)=O)n2)cc1 show?
235 to 236 °C

Given the entry Cc1cc(CNC(=O)c2cc(-c3ccc(-c4ccccc4C)cc3)nn2C)ccc1OC(C)(C)C(=O)O , report its measured melting point.
90 to 100 °C

Need melting point, item CCn1cc(C(=O)O)c(=O)cc1-c1ccc(O)cc1
243 to 245 °C

I am curious: what melting point value has been reported for CCOC(=O)c1cc(N)ccc1O ?
40 to 43 °C

Given the molecule CCCOc1cc2c(cc1OCCC)CCC(C(=O)N1CCN(C(=O)c3cc(OC)c(OC)c(OC)c3)CC1)=C2 , what is its reported melting point?
124 to 126 °C

Param item = COc1cc(-c2c(Cl)c(CNC(C)(C)C)nc3sc4c(c23)CCN(C(=O)c2ccccc2)C4)ccc1OC(C)C ; retrieve measured melting point.
165 to 166 °C

Need melting point, item O=Cc1ccnc2ccc(-c3ccccc3)cc12
115 °C

Consider the molecule CS(=O)(=O)Nc1ccc(OCC2CCNCC2)cc1 and give its measured melting point.
180 to 183 °C

I have this molecule here, CCCCCCCCCCCCCCCCSCC(O)COC(c1ccccc1)(c1ccccc1)c1ccccc1 (stereo not drawn) , and I need its recorded melting point.
61 to 62 °C

Which melting point reading was recorded for the molecule C=CCOC(=O)c1ccccc1OS(=O)(=O)NC(=O)Nc1nc(OC)cc(OC)n1 ?
110 to 112 °C

Need melting point of Cn1cc(S(C)(=O)=O)c(=O)c2ccc(F)cc21 , thanks.
222 to 224 °C

Which melting point is listed for NC(=O)C(N)c1ccc(F)cc1F (stereo not drawn) ?
143 °C

Fill in the blank: the reported melting point of Cn1c2ccccc2c(=O)c2c([N+](=O)[O-])cccc21 is ____.
308 to 309 °C

I would be grateful if you could share the reported melting point for COC(=O)[C@H]1CO[C@@H](C(C)(C)C)N1C(=O)Cl .
78 °C

Need melting point of CCCc1c(O)c(C(C)=O)cc2c1N=C(C(=O)OC)CC2=O , thanks.
169 to 170 °C

====

Readout type: melting point

# lookup: melting point of COc1ccc([C@@H]2Sc3ccccc3N(CCN(C)C)C(=O)[C@@H]2OC(=O)Nc2ccccc2)cc1 (relative stereo)
106 to 108 °C

Can you look up the measured melting point of COc1ccc(C2=NN(c3ccccc3)C(c3ccc(N)cc3)C2)cc1 (stereo not drawn) for me?
164 to 166 °C

Bench note: what melting point did Cc1oc(-c2ccccc2)nc1COc1ccc(OCc2nc(-c3ccccc3)oc2CO)cc1 show?
157 to 158 °C

Tell me the measured melting point of CCN=C(SC)N(C)Cc1ccc(Cl)nc1 , please.
132 to 133 °C

What does the record list as melting point for Nc1ccc(C(=O)c2ccccn2)cc1N ?
137 to 138 °C

Any idea what its melting point is? The compound is COC(=O)c1ccc(OC)c(F)c1F
66 to 68 °C

Look at this compound and give its reported melting point. COc1ccc(CCCC(=O)Nc2ncc([N+](=O)[O-])s2)cc1
176 to 177 °C

I have this compound here, CCOC(=O)c1cnc2c(c(C)nn2CC)c1Cl , and I need its recorded melting point.
70 to 74 °C

Looking for the measured melting point of O=C(O)c1ccccc1C(=O)NCCCn1ccnc1 , can you help?
160 to 162 °C

Can you look up the measured melting point of CCn1c(=O)c(-c2c(Cl)cccc2Cl)cc2cnc(NCCCN3CCN(C)CC3)nc21 for me?
126 to 128 °C

Sample COC(=O)c1cn(C2CC2)c2c(F)c(F)c(F)cc2c1=O — what was its melting point?
214 to 216 °C

I am curious: what melting point value has been reported for NC(=S)Nc1cc(-c2ccccc2)nn1-c1ccccc1 ?
198 to 201 °C

Which measured melting point value corresponds to CCCCCCCCCCCCCCCCOCCSCCOC(=O)NCc1ccccn1 ?
55 to 56 °C

====

For each entry below, report its melting point value.

Value lookup for melting point; key = COc1ccccc1N1CCN(C(=O)Nc2nc(C)c(C)nc2OC)CC1
184 to 185 °C

Returns the measured melting point for the input molecule. Input: Cc1cn2c(n1)Cc1cc3c(cc1C(c1ccc(N)cc1)=N2)OCO3
165 to 166 °C

May I ask what melting point has been recorded for O=C(CN1C(=O)C2(COc3cc4c(cc32)CCO4)c2cc(Cl)ccc21)Nc1ccccc1F (stereo not given) ?
229 to 230 °C

Request the reported melting point associated with CC(C)(C)NC(=O)[C@@H]1CSCN1
68 to 71 °C

Requested field: melting point. Item: Nc1ccc2nc(-c3ccccc3)oc2c1
212 to 214 °C

Which value of melting point has been reported for Cc1c(-c2ccc(N3CCOC3=O)cc2)nc2n1CCc1ccccc1C2OC1CCN(C)CC1 (stereo not given) in the records?
214 °C

// query melting point value for entry CCCCCc1c(OCc2ccccc2)ccc(C(C)=O)c1O
61 to 62 °C

Consider the molecule shown here: [N-]=[N+]=NCCOc1ccc(/C(=C(\c2ccccc2)C(F)(F)F)c2ccccc2)cc1 What is its recorded melting point?
110 to 118 °C

Consider the molecule O=C1NC2CCC(=O)N2[C@H]1Cc1ccccc1 (stereo not given in full) and give its measured melting point.
141 to 145 °C

Give its melting point value. Item: CCCc1c(C(=O)C(C)C)c2ccc(C(=O)OC)cc2n1Cc1ccccc1[N+](=O)[O-]
166 °C

====

Would you mind telling me the reported melting point of each entry?

Requested field: melting point. Item: Cc1ccc(C2=NNC(=O)CC2)c(OCC(O)CNC(C)(C)C)c1 (centres undefined)
130 °C

Need melting point of CCCCc1nc2c(N)nc3cc(-c4ccc(OCCC)cc4)ccc3c2n1CC(C)C , thanks.
194 to 197 °C

Look up melting point: Cc1ccc(N2C(=O)N(CC(=O)Nc3c(C(C)C)cccc3C(C)C)C(=O)C23CCN(C(=O)OC(C)(C)C)CC3)cc1
227 to 229 °C

Given the entry O=C(NCCC(O)(c1ccccc1)c1ccccc1)c1ccccc1 , report its measured melting point.
145 to 146 °C

Endpoint output: melting point of C=C(C)Cc1cc(C)c2c(c1O)C(=O)CC2 . Value?
62.5 to 64 °C

Value lookup for melting point; key = COc1cc(-c2nc3ccccc3n2Cc2ccccc2Cl)cc(OC)c1OC
174 °C

So what's the measured melting point for this one? CC(C)(C)C(=O)OCCN1CCN(c2nc(N)ncc2Oc2ccc(Cl)cc2)CC1
123 to 125 °C

Looking for the measured melting point of Fc1ccccc1-c1ccc(Cl)nn1 , can you help?
95 to 96 °C

Can you look up the measured melting point of CC(=O)Oc1ccc2cccc(OCC(=O)c3ccccc3)c2n1 for me?
141 to 142 °C

Any idea what its melting point is? The molecule is CC(C)(C)OC(=O)NCCCN(CCCCOC(=O)NCNC(=O)CCCCCCNC(=O)OCc1ccccc1)C(=O)OC(C)(C)C
115 °C

I'd like to know its melting point. The molecule in question is Cc1nc2ccnn2c(=O)[nH]1
268 °C

Given the molecule NN=C1CCCCC1n1nc(-c2c(-c3ccccc3)nn3ccccc23)ccc1=O (centres undefined) , what is its reported melting point?
161 to 162 °C

So what does the record say about melting point for CCc1c(-c2ccc3cn[nH]c3c2)cc(Nc2ccc(N3CCN(CC)CC3)cn2)c2nccn12 ?
217 °C

GET /values?readout=melting point&item= COc1ccc(-c2nc3cccnc3[nH]2)cc1NS(=O)(=O)c1cccs1
252 to 254 °C

====

Readout type: melting point

Dear colleague, I am looking for the recorded melting point of the following molecule: O=c1c2c(Cc3ccccc3)n[nH]c2c2ccncc2n1-c1ccccc1
303 to 307 °C

Reported melting point for CCOC(=O)c1c(C)nc(Cl)c([N+](=O)[O-])c1NC(C)(C)C : what is it?
35 to 36 °C

Entry Cc1ccc(NC(=O)Oc2ccc3c(c2)NCCC3)cc1 : reported melting point = ?
128 °C

Return reported melting point; argument: COCCOc1cc2ncc(C#N)c(C)c2cc1OC
188 to 193 °C

Look up melting point for this molecule: CN(C(=O)CBr)c1ccc(Cl)cc1C(=O)c1ccccc1Cl
86 °C

State the recorded melting point for this entry: CN(C)Cc1ccnc(OCCCNc2c(N)c(=O)c2=O)c1
212 to 214 °C

# get_value(readout='melting point', item= CC(=O)OCC(=O)C1=CCC2C3CCC4=CC(=O)C=CC4(C)C3(F)C(OC(C)=O)CC12C (centres undefined) )
294 to 296 °C

Query (molecule): CC(CCC(=O)c1ccccc1)C1CC=C2C3=C(CCC21C)C1(C)CCC(O)C(C)(C)C1CC3 (centres undefined) ; field requested: melting point
196 to 199 °C

Could you share which melting point value was measured for CNC(=S)NS(=O)(=O)c1cc(CCNC(=O)c2cc(Cl)ccc2OC)ccc1OCCOC ?
134 °C

# melting point lookup, item CC(C)c1nn(-c2ccc(C(F)(F)F)cn2)cc1CCCOc1nn(C)cc1CC(=O)O
122 to 123 °C

# melting point lookup, item COC(=O)c1ccc(-c2ccc(C#N)s2)nc1
164 to 166 °C

Give its melting point value. Item: CC(=O)Nc1cc(NC(C)=O)cc([N+](=O)[O-])c1
> 290 °C

Which melting point reading was recorded for the molecule COc1cc2c(cc1F)C(CCCN1CCN(C)CC1)(c1ccccc1F)C(=O)N2S(=O)(=O)c1ccc(OC(C)C)cc1 (centres undefined) ?
72 °C

Item O=C(O)c1cn(C2CC2)c2c(F)c(N3CC(C(=O)O)C3)c(F)cc2c1=O has what recorded melting point?
251 to 255 °C

Attribution: a melting point compilation (Tetko et al.; mined from patent text by program, amines drawn as free bases though some values may be those of a salt)
